# System name: Sodium channel protein type 2 subunit alpha (Homo sapiens, UniProt Q99250)
# Sequence (Q99250 whole entry, looked up): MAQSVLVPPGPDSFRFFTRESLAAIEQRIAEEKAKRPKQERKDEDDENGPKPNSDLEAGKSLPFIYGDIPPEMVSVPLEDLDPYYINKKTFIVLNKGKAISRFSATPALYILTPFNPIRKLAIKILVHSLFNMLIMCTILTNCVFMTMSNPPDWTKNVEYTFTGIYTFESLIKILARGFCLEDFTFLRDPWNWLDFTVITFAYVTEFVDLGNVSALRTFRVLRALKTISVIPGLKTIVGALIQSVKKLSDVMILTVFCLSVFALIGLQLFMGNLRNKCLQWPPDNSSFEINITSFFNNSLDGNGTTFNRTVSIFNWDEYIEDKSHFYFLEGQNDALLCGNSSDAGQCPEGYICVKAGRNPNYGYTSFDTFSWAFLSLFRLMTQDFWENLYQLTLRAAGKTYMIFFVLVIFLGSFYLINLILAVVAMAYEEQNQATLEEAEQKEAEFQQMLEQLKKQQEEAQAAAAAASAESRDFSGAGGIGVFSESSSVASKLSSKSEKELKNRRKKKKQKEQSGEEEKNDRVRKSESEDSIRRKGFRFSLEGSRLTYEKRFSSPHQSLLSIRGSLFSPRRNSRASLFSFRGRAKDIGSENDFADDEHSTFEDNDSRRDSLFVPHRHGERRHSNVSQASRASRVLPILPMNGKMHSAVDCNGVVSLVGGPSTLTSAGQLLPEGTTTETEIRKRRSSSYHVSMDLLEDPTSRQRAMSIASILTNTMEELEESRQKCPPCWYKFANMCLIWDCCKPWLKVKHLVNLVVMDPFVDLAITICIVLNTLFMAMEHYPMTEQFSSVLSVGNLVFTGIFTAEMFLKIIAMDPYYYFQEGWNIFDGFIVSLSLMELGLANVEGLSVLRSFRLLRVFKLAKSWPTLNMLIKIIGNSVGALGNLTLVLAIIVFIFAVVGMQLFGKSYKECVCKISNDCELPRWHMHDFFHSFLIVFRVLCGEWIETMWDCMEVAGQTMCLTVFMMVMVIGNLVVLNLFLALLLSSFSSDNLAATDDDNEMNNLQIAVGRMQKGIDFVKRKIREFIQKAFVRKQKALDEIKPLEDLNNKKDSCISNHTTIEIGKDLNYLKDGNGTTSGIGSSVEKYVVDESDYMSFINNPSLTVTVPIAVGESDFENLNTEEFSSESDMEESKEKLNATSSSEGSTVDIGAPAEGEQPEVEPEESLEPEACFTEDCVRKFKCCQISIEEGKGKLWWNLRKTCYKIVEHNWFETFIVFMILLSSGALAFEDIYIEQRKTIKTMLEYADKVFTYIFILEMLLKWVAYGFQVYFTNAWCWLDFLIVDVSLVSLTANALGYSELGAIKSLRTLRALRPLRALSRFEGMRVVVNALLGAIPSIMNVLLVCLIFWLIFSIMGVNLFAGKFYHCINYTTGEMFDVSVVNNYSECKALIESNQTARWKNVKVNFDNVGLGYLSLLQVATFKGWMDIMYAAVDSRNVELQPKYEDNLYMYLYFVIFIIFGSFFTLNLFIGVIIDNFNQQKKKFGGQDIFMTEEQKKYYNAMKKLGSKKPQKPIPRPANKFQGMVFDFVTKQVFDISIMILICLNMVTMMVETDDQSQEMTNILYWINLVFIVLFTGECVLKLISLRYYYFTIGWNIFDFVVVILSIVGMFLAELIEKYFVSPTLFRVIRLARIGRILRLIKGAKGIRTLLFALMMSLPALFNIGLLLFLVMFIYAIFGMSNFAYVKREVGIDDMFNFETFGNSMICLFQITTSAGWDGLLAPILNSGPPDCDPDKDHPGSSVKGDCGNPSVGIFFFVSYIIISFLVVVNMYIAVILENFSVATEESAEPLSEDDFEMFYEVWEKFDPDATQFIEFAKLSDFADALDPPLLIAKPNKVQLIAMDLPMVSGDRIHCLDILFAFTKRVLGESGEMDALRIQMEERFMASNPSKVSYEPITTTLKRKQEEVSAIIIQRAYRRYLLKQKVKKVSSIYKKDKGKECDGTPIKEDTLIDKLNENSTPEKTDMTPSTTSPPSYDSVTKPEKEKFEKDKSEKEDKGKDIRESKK
# Experiment summary: Inhibition of human Nav1.2 channel expressed in HEK cells at 100 uM by patch-clamp electrophysiology method
# Format: cell-based
# Experimental conditions: HEK293
Listing of recorded inhibition by entry.

{"Compound": "O=[N+]([O-])c1ccc(-c2nc(-c3cccc(C(F)(F)F)c3)c[nH]2)cc1", "System name": "Sodium channel protein type 2 subunit alpha (Homo sapiens, UniProt Q99250)", "Units text": "%", "inhibition": 100}
{"Compound": "O=[N+]([O-])c1ccc(-c2c[nH]c(-c3ccccc3)n2)cc1", "System name": "Sodium channel protein type 2 subunit alpha (Homo sapiens, UniProt Q99250)", "Units text": "%", "inhibition": 30.3}
{"Compound": "Clc1cccc(-c2nc(-c3ccccc3)c[nH]2)c1", "System name": "Sodium channel protein type 2 subunit alpha (Homo sapiens, UniProt Q99250)", "Units text": "%", "inhibition": 92.2}
{"Compound": "O=[N+]([O-])c1ccc(-c2nc(-c3ccccc3)c[nH]2)cc1", "System name": "Sodium channel protein type 2 subunit alpha (Homo sapiens, UniProt Q99250)", "Units text": "%", "inhibition": 92.6}
{"Compound": "Clc1ccc(-c2c[nH]c(-c3ccccc3)n2)cc1", "System name": "Sodium channel protein type 2 subunit alpha (Homo sapiens, UniProt Q99250)", "Units text": "%", "inhibition": 96.6}
{"Compound": "O=[N+]([O-])c1cccc(-c2c[nH]c(-c3ccccc3)n2)c1", "System name": "Sodium channel protein type 2 subunit alpha (Homo sapiens, UniProt Q99250)", "Units text": "%", "inhibition": 85.8}
{"Compound": "Nc1nnc(-c2cccc(Cl)c2Cl)c(N)n1 [LAMOTRIGINE]", "System name": "Sodium channel protein type 2 subunit alpha (Homo sapiens, UniProt Q99250)", "Units text": "%", "inhibition": 35.1}
{"Compound": "FC(F)(F)c1cccc(-c2nc(-c3ccccc3)c[nH]2)c1", "System name": "Sodium channel protein type 2 subunit alpha (Homo sapiens, UniProt Q99250)", "Units text": "%", "inhibition": 95.2}
{"Compound": "COc1ccc(-c2c[nH]c(-c3ccccc3)n2)cc1", "System name": "Sodium channel protein type 2 subunit alpha (Homo sapiens, UniProt Q99250)", "Units text": "%", "inhibition": 33.3}
{"Compound": "O=[N+]([O-])c1cccc(-c2nc(-c3ccccc3)c[nH]2)c1", "System name": "Sodium channel protein type 2 subunit alpha (Homo sapiens, UniProt Q99250)", "Units text": "%", "inhibition": 20.4}
{"Compound": "COc1cccc(-c2c[nH]c(-c3ccccc3)n2)c1", "System name": "Sodium channel protein type 2 subunit alpha (Homo sapiens, UniProt Q99250)", "Units text": "%", "inhibition": 35.6}
